- Target or test system: T1, human IL4Rα expressed on 293F-IL4Rα cells (human, UniProt P24394 26-825)
- T1 construct: whole, on cells; also called cell surface human IL4Rα
- Experiment description: flow cytometry, 293F-IL4Rα cells
Form field: EC50 (one value per entry).
Please reply with the bare figure in nM and do not write the unit itself.

Solved entries:
mouse antibody C2B2F7B7 (antibody, V domains shown, Mouse hybridoma mAb) VH: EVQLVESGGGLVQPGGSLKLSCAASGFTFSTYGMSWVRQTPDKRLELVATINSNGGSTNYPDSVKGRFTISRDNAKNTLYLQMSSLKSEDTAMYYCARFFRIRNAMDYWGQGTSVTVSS VL: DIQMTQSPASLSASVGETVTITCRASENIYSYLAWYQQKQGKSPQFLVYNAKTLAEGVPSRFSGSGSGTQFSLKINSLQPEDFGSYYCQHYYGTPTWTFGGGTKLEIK | 0.18
mouse antibody B1D2F7D3B5 (antibody, V domains shown, Mouse hybridoma mAb) VH: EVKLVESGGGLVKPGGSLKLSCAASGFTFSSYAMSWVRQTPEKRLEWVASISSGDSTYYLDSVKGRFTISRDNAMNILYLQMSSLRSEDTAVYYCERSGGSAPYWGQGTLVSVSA VL: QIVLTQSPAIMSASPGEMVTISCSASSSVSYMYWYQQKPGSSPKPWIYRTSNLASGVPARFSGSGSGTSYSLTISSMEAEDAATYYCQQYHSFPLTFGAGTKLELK | 0.25

Can you share its EC50? I mean this binder: mouse antibody B8G11F2B7G5E8 (antibody, V domains shown, Mouse hybridoma mAb; also called Mouse B8G11F2B7G5E8; mAb B8G11F2B7G5E8) VH: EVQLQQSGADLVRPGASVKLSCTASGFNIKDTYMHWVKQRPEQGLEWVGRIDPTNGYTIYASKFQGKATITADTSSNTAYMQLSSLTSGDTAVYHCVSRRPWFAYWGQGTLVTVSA VL: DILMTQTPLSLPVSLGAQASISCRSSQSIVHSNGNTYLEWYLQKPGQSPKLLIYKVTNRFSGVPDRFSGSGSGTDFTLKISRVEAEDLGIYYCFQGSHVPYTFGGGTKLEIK
0.25
